tested on: FMC63; experiment: CD19 variant binding to anti-CD19 antibody FMC63 (score); details: Table 1A, CD19 single mutants (positions of SEQ ID NO:2)
Sequence (as listed by the source): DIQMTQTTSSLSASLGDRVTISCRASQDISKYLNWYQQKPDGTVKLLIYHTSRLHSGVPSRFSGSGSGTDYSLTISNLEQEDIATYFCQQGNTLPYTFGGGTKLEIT
Sequence (as listed by the source): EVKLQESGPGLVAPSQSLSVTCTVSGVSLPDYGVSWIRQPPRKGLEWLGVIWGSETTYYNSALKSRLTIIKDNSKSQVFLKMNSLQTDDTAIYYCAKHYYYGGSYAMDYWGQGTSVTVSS
Recorded FMC63 Binding Score for the following molecules
OBSERVABLE: FMC63 Binding Score

{"MOLECULE": "W264T: CD19 variant (protein) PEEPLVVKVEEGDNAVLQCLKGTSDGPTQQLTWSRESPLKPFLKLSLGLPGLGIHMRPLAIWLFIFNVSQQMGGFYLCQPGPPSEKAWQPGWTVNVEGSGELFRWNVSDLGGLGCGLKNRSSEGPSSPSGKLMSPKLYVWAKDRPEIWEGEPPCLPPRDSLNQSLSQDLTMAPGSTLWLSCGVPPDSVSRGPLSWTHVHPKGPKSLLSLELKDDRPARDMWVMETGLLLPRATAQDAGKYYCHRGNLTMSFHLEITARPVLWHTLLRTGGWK", "OBSERVABLE": "FMC63 Binding Score", "MEASURED": "7.2 ± .8"}
{"MOLECULE": "W262Q: CD19 variant (protein) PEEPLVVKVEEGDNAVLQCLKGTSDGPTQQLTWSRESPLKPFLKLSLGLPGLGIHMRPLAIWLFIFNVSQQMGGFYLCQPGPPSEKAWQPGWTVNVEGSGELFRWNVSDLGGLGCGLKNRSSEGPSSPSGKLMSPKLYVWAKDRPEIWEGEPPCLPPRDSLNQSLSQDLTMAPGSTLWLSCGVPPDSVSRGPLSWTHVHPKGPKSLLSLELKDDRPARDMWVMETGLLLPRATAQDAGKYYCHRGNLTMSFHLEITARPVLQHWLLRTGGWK", "OBSERVABLE": "FMC63 Binding Score", "MEASURED": "6.8 ± .6"}
{"MOLECULE": "W262D: CD19 variant (protein) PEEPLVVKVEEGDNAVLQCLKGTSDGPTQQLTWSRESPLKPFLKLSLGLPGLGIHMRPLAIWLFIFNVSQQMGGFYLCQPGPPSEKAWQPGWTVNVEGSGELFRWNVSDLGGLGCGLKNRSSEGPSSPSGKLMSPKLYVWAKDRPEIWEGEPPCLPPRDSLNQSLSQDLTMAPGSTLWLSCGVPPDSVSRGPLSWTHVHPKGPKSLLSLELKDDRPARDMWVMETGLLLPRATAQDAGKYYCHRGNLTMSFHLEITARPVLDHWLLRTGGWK", "OBSERVABLE": "FMC63 Binding Score", "MEASURED": "8.3 ± .8"}
{"MOLECULE": "M223T: CD19 variant (protein) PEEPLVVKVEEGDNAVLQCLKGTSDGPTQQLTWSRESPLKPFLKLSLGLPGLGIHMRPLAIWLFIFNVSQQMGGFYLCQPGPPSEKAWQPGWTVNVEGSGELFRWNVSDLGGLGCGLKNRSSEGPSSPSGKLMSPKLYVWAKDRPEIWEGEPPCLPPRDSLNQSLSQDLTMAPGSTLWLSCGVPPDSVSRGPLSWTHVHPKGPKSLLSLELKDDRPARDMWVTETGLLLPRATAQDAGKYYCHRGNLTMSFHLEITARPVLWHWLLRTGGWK", "OBSERVABLE": "FMC63 Binding Score", "MEASURED": "6.7 ± .4"}
{"MOLECULE": "H243T: CD19 variant (protein) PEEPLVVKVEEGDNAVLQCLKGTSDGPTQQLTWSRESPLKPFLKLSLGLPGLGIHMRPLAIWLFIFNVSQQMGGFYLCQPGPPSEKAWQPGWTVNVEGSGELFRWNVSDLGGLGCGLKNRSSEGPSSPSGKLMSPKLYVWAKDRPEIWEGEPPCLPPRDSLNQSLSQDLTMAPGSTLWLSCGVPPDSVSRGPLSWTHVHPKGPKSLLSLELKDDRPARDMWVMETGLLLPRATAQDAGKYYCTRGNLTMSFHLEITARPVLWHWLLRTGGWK", "OBSERVABLE": "FMC63 Binding Score", "MEASURED": "7.1 ± .9"}
{"MOLECULE": "W262S: CD19 variant (protein) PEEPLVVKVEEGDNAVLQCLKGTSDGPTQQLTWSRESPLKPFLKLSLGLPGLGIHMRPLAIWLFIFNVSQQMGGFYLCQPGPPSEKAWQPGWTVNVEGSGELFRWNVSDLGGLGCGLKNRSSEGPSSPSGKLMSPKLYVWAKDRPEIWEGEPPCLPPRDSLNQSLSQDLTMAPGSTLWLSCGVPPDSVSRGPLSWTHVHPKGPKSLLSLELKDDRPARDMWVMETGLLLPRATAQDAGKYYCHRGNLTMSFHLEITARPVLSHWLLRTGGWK", "OBSERVABLE": "FMC63 Binding Score", "MEASURED": "7. ± .3"}
{"MOLECULE": "V260K: CD19 variant (protein) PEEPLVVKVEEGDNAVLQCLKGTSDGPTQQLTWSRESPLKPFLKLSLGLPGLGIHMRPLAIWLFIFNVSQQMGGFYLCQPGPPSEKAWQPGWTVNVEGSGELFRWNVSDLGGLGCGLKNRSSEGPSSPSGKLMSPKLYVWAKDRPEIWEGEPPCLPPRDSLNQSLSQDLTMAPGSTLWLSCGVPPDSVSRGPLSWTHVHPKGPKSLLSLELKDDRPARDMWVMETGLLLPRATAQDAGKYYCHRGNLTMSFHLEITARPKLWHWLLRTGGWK", "OBSERVABLE": "FMC63 Binding Score", "MEASURED": "7.5 ± .7"}
{"MOLECULE": "W264Q: CD19 variant (protein) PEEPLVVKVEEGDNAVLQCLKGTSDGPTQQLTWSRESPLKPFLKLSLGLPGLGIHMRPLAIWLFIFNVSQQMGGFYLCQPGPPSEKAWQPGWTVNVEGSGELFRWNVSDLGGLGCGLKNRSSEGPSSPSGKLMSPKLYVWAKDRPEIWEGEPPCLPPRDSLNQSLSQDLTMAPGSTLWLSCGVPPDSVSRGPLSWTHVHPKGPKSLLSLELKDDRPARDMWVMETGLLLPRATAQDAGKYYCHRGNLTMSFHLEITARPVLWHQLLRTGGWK", "OBSERVABLE": "FMC63 Binding Score", "MEASURED": "7.4 ± .8"}
